Measured on: T1, human LAP-TGFB1 Fc fusion (human)
T1 construct: also called human LAP-TGFβ1-Fc; human LAP-TGFβ-Fc isoform 1
Measurement protocol: BLI off-rate screen
Measured log10(Binding response) by item
The common logarithm of Binding response in nm is what is listed.

Ask: Returns the measured log10(Binding response) for the input binder. Input: VH G102S (29BIT) (Fab, V domains shown, Light chain: parental 20E6 LC, implied) VH: EVQLVQSGAEVKKPGASVKVSCKASGYTFTSYWMHWVRQAPGQGLEWMGRIDPQSGGIKYAQKFQGRATLTVDTSTSTAYMELSRLRSDDTAVYYCARWDYSGYFDVWGQGTLVTVSS VL: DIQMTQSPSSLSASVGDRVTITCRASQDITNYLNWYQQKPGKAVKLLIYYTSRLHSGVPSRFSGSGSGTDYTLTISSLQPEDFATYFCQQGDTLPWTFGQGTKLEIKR
Reply: -1.06

Ask: Ok, now VL R53I (34BIT) (Fab, V domains shown, Heavy chain: parental 20E6 Fab HC, implied; also called VL R531 (34BIT)) VH: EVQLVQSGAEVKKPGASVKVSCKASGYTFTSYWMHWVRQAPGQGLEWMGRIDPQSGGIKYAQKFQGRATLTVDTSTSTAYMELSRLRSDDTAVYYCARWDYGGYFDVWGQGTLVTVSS VL: DIQMTQSPSSLSASVGDRVTITCRASQDITNYLNWYQQKPGKAVKLLIYYTSILHSGVPSRFSGSGSGTDYTLTISSLQPEDFATYFCQQGDTLPWTFGQGTKLEIKR
Reply: -0.12

Ask: Ok, now VH G57E (63BIT) (Fab, V domains shown, Light chain: parental 20E6 LC, implied) VH: EVQLVQSGAEVKKPGASVKVSCKASGYTFTSYWMHWVRQAPGQGLEWMGRIDPQSGEIKYAQKFQGRATLTVDTSTSTAYMELSRLRSDDTAVYYCARWDYGGYFDVWGQGTLVTVSS VL: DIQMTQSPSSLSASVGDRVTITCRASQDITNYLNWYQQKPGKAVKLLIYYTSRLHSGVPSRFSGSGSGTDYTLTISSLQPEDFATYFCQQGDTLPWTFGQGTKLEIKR
Reply: -0.16

Ask: Ok, now VL R53D (35BIT) (Fab, V domains shown, Heavy chain: parental 20E6 Fab HC, implied) VH: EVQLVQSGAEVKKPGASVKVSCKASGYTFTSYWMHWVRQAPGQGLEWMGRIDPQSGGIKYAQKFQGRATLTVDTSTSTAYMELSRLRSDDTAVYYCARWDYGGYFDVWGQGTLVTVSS VL: DIQMTQSPSSLSASVGDRVTITCRASQDITNYLNWYQQKPGKAVKLLIYYTSDLHSGVPSRFSGSGSGTDYTLTISSLQPEDFATYFCQQGDTLPWTFGQGTKLEIKR
Reply: -0.40

Ask: Ok, now VH S31R (25BIT) (Fab, V domains shown, Light chain: parental 20E6 LC, implied) VH: EVQLVQSGAEVKKPGASVKVSCKASGYTFTRYWMHWVRQAPGQGLEWMGRIDPQSGGIKYAQKFQGRATLTVDTSTSTAYMELSRLRSDDTAVYYCARWDYGGYFDVWGQGTLVTVSS VL: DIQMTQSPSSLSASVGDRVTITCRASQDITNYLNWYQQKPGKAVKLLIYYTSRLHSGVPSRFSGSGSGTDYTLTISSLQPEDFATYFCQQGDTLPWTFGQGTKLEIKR
Reply: -1.16
